B1: EHEE_rd4_0086 (parent)
chain: EIHIRTNGEEQARKVYKMLAKRNYDVKIEQHNGQWVVTAS

# Variants of: B1
# assay: folding stability dG (cDNA display proteolysis); higher = more stable
# conditionContext: PBS, room temperature
Label rule not met if folding stability dG falls below 0.8 kcal/mol; label rule met in every other case.

Does folding stability dG meet or surpass 0.8 kcal/mol for `EIHIRTNGEEQMRKVYKMLAKRNYDVKIEQHNGQWVVTAS` ?
rule not met

Also check `EIHIRTNGEEQARKVYKMLAKRNYDVKIEQTNGQWVVTAS`
rule met

Okay, and `EIHIRTNGEEQARKVYKMLAKRNYDVKIEQHVGQWVVTAS` ?
rule not met

Please do the same for `EIHIRTNGEEQARKVYKVLAKRNYDVKIEQHNGQWVVTAS` as well.
rule met

Another variant to look at: `EIHIRTNGEEQARKVYKMLAKRNYDVKIEQHNGQWRVTAS`
rule met

Can you handle `EIHIRTNGEEQARKVYKMLAKRNYDVKIEQHNGQWVVDAS` next?
rule not met

Also `EIHIRTNGEEQARKVYKMLAKRNYDVKIEQHDGQWVVTAS` ?
rule met

Next variant: `EIHIRTNGEEQARKVYKMLAKRNYDVKIEQHNLQWVVTAS`
rule not met

Same read-out for `EIHIRNNGEEQARKVYKMLAKRNYDVKIEQHNGQWVVTAS` ?
rule not met

Thanks! And `EIHIRTNGMEQARKVYKMLAKRNYDVKIEQHNGQWVVTAS` ?
rule met

Next entry: `EIHIRTNGEEQARKVYKMLAKRNYDVKIETHNGQWVVTAS`
rule met
